# Test system: L1210 leukemia ip in BDF1 mice, survival T/C
# Protocol description: NCI In Vivo Anticancer Drug Screen. Data for tumor model L1210 Leukemia (intraperitoneal) in B6D2F1 (BDF1) mice
# Condition summary: endpoint: mean survival time; dose: 50.0 mg/kg/injection; schedule: Q04DX003 (ip); vehicle: saline with Tween-80; higher = longer survival
Toxic doses and inconclusive results are not listed.
Recorded endpoint: T/C

As a guide, the following entries are already answered.
C#CC1(OCC(CCl)OC(N)=O)CCCCC1 (stereo not given) :: 95 % of control
CN1CCC(S)(S)CC1 :: 106 % of control
O=C(O)c1ccccc1[N+](=O)[O-].[Ag] :: 91 % of control
CCC(CO)NC(=O)Nc1cccc2ccccc12 (stereo not given) :: 105 % of control
CSCC1OC(n2cnc3c(N)nc(Cl)nc32)C(O)C1O (stereo not given) :: 101 % of control
O=c1ccccn1CCc1ccccc1 :: 97 % of control
O=C(CCl)Nc1ncc([N+](=O)[O-])s1 :: 87 % of control
Cc1sc(Cc2ccccc2)nc1-c1ccc(N=Cc2ccc(N(CCOS(C)(=O)=O)CCOS(C)(=O)=O)cc2)cc1 :: 123 % of control
C/C(CSc1ncnc2nc[nH]c12)=N\NC(N)=S :: 101 % of control

Okay, next one:
## Task Consider the compound shown here: "O=C(CCCl)Oc1c(Cl)c(Cl)c(Cl)c(Cl)c1Cl" What is its recorded T/C?
## Result 95 % of control

###

Recorded measurements of T/C, one per entry
# Test system: L1210 leukemia ip in BDF1 mice, survival T/C
# Protocol description: NCI In Vivo Anticancer Drug Screen. Data for tumor model L1210 Leukemia (intraperitoneal) in B6D2F1 (BDF1) mice
# Condition summary: endpoint: mean survival time; dose: 400.0 mg/kg/injection; schedule: Q04DX002 (ip); vehicle: saline; higher = longer survival
# Method: The antitumor activity of compounds was measured in mice bearing transplantable tumors. Survival or tumor size were measured and the results are expressed as the measurement made in the treated group (T) divided by the measurement made in the vehicle treated control group (C). The tumor model used in this assay is L1210 Leukemia (intraperitoneal) in B6D2F1 (BDF1) mice
Inconclusive results and toxic doses are left out.

As a guide, the following entries are already answered.
CCCCCCCCC(=O)N1C(C)CCCC1C (stereo not given) :: 100 % of control
O=S(=O)(O)CCl :: 102 % of control

Okay, next one:
## Task Consider the compound shown here: CC(=O)NC(CCC(N)=O)C(=O)O (stereo not given) What is its recorded T/C?
## Result 96 % of control

###

# Tested on: L1210 leukemia ip in BDF1 mice, survival T/C
# Protocol description: NCI In Vivo Anticancer Drug Screen. Data for tumor model L1210 Leukemia (intraperitoneal) in B6D2F1 (BDF1) mice
# Condition summary: endpoint: mean survival time; dose: 50.0 mg/kg/injection; schedule: Q01DX009 (ip); vehicle: saline with Tween-80; higher = longer survival
Toxic doses and inconclusive results are not listed.
Recorded measurements of T/C, one per entry

As a guide, the following entries are already answered.
CCOc1ccc(Nc2cccc(O)c2)cc1 :: 95 % of control
CSc1ccc(SCCOC(=O)Nc2ccc(Cl)cc2Cl)cc1 :: 91 % of control
Nc1ccnc(Cl)c1N :: 111 % of control
O=C(CCCl)Oc1c(Cl)c(Cl)c(Cl)c(Cl)c1Cl :: 111 % of control
O=C(O)/C(=C(/Cc1ccccc1)C(=O)c1ccccc1)c1ccccc1 :: 98 % of control
CC1(C)OC2OC(C(O)CSCc3ccccc3)C(O)C2O1 (centres undefined) :: 94 % of control
CCCCCCCCCCCCNC :: 91 % of control
NC(=O)C1(O)C(Cl)(Cl)CCCC1(Cl)Cl :: 102 % of control
N#Cc1cc2c3c(c1)CCCN3CCC2 :: 91 % of control
CCOC(=O)C(C(C)=O)C1c2ccccc2Nc2ccccc21 (centres undefined) :: 98 % of control

Okay, next one:
## Task Tell me reported T/C for O=C1OC(C(O)CO)C(=O)C1=O (centres undefined) , tested with L1210 leukemia ip in BDF1 mice, survival T/C.
## Result 97 % of control

Ref: PubChem BioAssay AID248
